System: P. falciparum female gametocytes
Assay: P. falciparum Dual Gamete Formation Assay (PfDGFA), female readout (Pfs25-positive female gametes)
Format: cell-based, Plasmodium falciparum NF54
Details: 2µM, 24h preincubation with gametocytes prior to induction of gametogenesis; average of replicates
PARAMETER MEASURED: Average inhibition female (%)
Record the result as a number with its unit.

input: Returns the measured Average inhibition female (%) for the input compound. Input: CCCCOc1cc(CNCCCCCCNCc2cc(OCCCC)cc3ccccc23)c2ccccc2c1.CS(=O)(=O)O
output: 23.5%

input: Returns the measured Average inhibition female (%) for the input compound. Input: Cl.Nc1nc(N)c2c(ccc3c2ccn3C2CCCCC2)n1
output: 10.6%

input: Returns the measured Average inhibition female (%) for the input compound. Input: CC(=O)Nc1ccc(Nc2c3ccccc3nc3ccccc23)cc1
output: 14.4%

input: Returns the measured Average inhibition female (%) for the input compound. Input: O=C(NCCCCN1CCC(c2ccc3c(c2OCCN2CCCC2)CCCC3)CC1)c1ccc(-c2ccc(C(F)(F)F)cc2)cc1
output: 9.4%

----------
Tested on: P. falciparum male gametocytes
Assay: P. falciparum Dual Gamete Formation Assay (PfDGFA), male readout (exflagellation)
Type: cell-based, Plasmodium falciparum NF54
Conditions: 2µM, 24h preincubation with gametocytes prior to induction of gametogenesis; replicate R1
PARAMETER MEASURED: % inhibition male (individual replicates) R1 (%)
Write it as a number; the unit % goes unstated.

input: Returns the measured % inhibition male (individual replicates) R1 for the input compound. Input: Cc1cccc2nc(-c3ccc(-c4cccc(CN5CCC(CCN6CCCCC6)CC5)c4)s3)[nH]c12.O=C(O)C(F)(F)F
output: 48.5

input: Returns the measured % inhibition male (individual replicates) R1 for the input compound. Input: Cc1cc(N2C(N)=NC(N)=NC2(C)C)ccc1Cl.Cl
output: 23.4

input: Returns the measured % inhibition male (individual replicates) R1 for the input compound. Input: CCc1c(CCNCCCCCCNCCc2ccc(OC)c(OC)c2CC)ccc(OC)c1OC.Cl
output: 56.6

input: Returns the measured % inhibition male (individual replicates) R1 for the input compound. Input: COc1ccccc1N1CCN(CCCCNC(=O)c2ccc(NC(=O)c3ccc(OC(F)(F)F)cc3)cc2)CC1.Cl
output: -7.9

input: Returns the measured % inhibition male (individual replicates) R1 for the input compound. Input: NC(CC1CC(=O)N1CC(=O)O)C(=O)O (stereo not drawn)
output: 15.3

input: Returns the measured % inhibition male (individual replicates) R1 for the input compound. Input: CC(C)COc1ccc2ccccc2c1CNCCCCCCNCc1c(OCC(C)C)ccc2ccccc12.CS(=O)(=O)O
output: 41.0

input: Returns the measured % inhibition male (individual replicates) R1 for the input compound. Input: CCc1c(CCNCCCC(C)CCNCCc2ccc(OC)c(OC)c2CC)ccc(OC)c1OC.Cl (stereo not drawn)
output: 69.1

input: Returns the measured % inhibition male (individual replicates) R1 for the input compound. Input: Cc1ccc(N2C(N)=NC(N)=NC2(C)C)cc1Cl.Cl
output: 11.4

input: Returns the measured % inhibition male (individual replicates) R1 for the input compound. Input: CC(C)N1CCN(C(CN2CCN(CCCOc3ccccc3-c3ccccc3)CC2)c2ccc(F)cc2)CC1.Cl (stereo not drawn)
output: 15.7

input: Returns the measured % inhibition male (individual replicates) R1 for the input compound. Input: COc1cc(CNCCCCCCNCc2cc(OC)cc3ccccc23)c2ccccc2c1.CS(=O)(=O)O
output: 24.9

input: Returns the measured % inhibition male (individual replicates) R1 for the input compound. Input: CC1(CCN2CCC(c3c[nH]c4cnccc34)CC2)CCCc2c(Br)cccc2C1=O.Cl (stereo not drawn)
output: 49.5

input: Returns the measured % inhibition male (individual replicates) R1 for the input compound. Input: COc1cccc(OC)c1CN1CCC(N(C)CCCCCCCCN2CCC(OC(=O)Nc3ccccc3-c3ccccc3)CC2)CC1
output: 48.0

input: Returns the measured % inhibition male (individual replicates) R1 for the input compound. Input: CCCCCCCN1CC[C@@H](CCCc2ccnc3ccc(OC)cc23)[C@@H](CNC)C1.O=C(O)C(=O)O
output: 37.4

input: Returns the measured % inhibition male (individual replicates) R1 for the input compound. Input: Cc1c(Cn2ncc(N3CCC(N)CC3)c(Cl)c2=O)cccc1NC(=O)Nc1ccc(-c2ccccc2)cc1.O=C(O)C(F)(F)F
output: 42.7

input: Returns the measured % inhibition male (individual replicates) R1 for the input compound. Input: COc1cc(C(=O)N2CCN(C(C)C)CC2)ccc1CN(C)CCCCN1CCN(c2cccc(Cl)c2Cl)CC1.Cl
output: 21.0

input: Returns the measured % inhibition male (individual replicates) R1 for the input compound. Input: CNCCNCc1cccc(-c2ccc(-c3nc4cc(C(F)(F)F)ccc4[nH]3)s2)c1.O=C(O)C(F)(F)F
output: 35.0

input: Returns the measured % inhibition male (individual replicates) R1 for the input compound. Input: COc1ccc(CNCc2ccc(F)cc2)cc1-c1cccc(S(=O)(=O)NCCN2CCCC2)c1.O=C(O)C(F)(F)F
output: -0.6

input: Returns the measured % inhibition male (individual replicates) R1 for the input compound. Input: CC(=O)Nc1ccc2[nH]cc(C3CCN(CC4CCC(NC(=O)/C=C/c5ccccc5Cl)CC4)CC3)c2n1 (stereo not drawn)
output: 38.4

input: Returns the measured % inhibition male (individual replicates) R1 for the input compound. Input: COc1cc(NC(=O)c2sc(-c3ccc(Cl)cc3)cc2NC(=O)c2cccnc2)ccc1OCCN1CCCC1
output: 45.5

input: Returns the measured % inhibition male (individual replicates) R1 for the input compound. Input: CCn1c(-c2nonc2N)nc2c(-c3cccc(NC(=O)Nc4ccccc4OC)c3)ncc(OCCCN)c21.O=C(O)C(F)(F)F
output: 46.0

input: Returns the measured % inhibition male (individual replicates) R1 for the input compound. Input: CC(C)(C)c1ccc(-c2cc3c(ccc4nc(N)nc(N)c43)[nH]2)cc1
output: 6.1

input: Returns the measured % inhibition male (individual replicates) R1 for the input compound. Input: COc1ccc(Cn2c(Nc3cccc(C(F)(F)F)c3)nc3ccc(C(=O)NCCN4CCCC4)cc32)cc1Cl
output: 6.1

input: Returns the measured % inhibition male (individual replicates) R1 for the input compound. Input: Cl.c1ccc2c(Nc3ccc(OCCOCCOc4ccc(Nc5c6ccccc6nc6ccccc56)cc4)cc3)c3ccccc3nc2c1
output: 36.9

input: Returns the measured % inhibition male (individual replicates) R1 for the input compound. Input: Cc1cc(-c2cccc(CNC3CCN(C)CC3)c2)ccc1S(=O)(=O)NCc1ccccc1.O=C(O)C(F)(F)F
output: 43.1

input: Returns the measured % inhibition male (individual replicates) R1 for the input compound. Input: Cc1nc(N)nc(N)c1-c1ccc(Br)c([N+](=O)[O-])c1
output: 15.3

input: Returns the measured % inhibition male (individual replicates) R1 for the input compound. Input: CNCCCNCc1ccc(-c2ccc(F)c(Cl)c2)o1.Cl
output: 6.0

input: Returns the measured % inhibition male (individual replicates) R1 for the input compound. Input: COc1cccc(Cn2ccc3c4c(N)nc(N)nc4ccc32)c1
output: 37.2

input: Returns the measured % inhibition male (individual replicates) R1 for the input compound. Input: Cc1cccc2nc(-c3ccc(-c4ccc(CN5CCC(N)C5)cc4)s3)[nH]c12.O=C(O)C(F)(F)F (stereo not drawn)
output: -13.8

input: Returns the measured % inhibition male (individual replicates) R1 for the input compound. Input: COc1ccc(CNC2Cc3ccccc3C2)cc1-c1cccc(S(=O)(=O)NCCN2CCCC2)c1.O=C(O)C(F)(F)F
output: 7.1

input: Returns the measured % inhibition male (individual replicates) R1 for the input compound. Input: O=C(O)C(F)(F)F.O=S(=O)(NCCN1CCCC1)c1cccc(-c2ccc(CNC3Cc4ccccc4C3)cc2)c1
output: 15.7
